# testTarget: HLA-B*83:01
# protocolDescription: IEDB peptide-MHC binding, purified MHC/competitive/fluorescence; filed as Kd, often an IC50 or EC50 that approximates it; bounds were set here for any values at or beyond the usual limits of such assays
# settings: source organism: Influenza A virus H3N2
pKd: −log10 of the molar value.
outcomeMeasure: pKd

Tested on HLA-B*83:01: FSFGGFTFK . Observed pKd: ≤ 5.30

----------
# testTarget: HLA-A*31:01
# protocolDescription: IEDB peptide-MHC binding, purified MHC/competitive/radioactivity; filed as Kd, often an IC50 or EC50 that approximates it; bounds were set here for any values at or beyond the usual limits of such assays
# settings: source organism: Dengue virus 4 Thailand/0348/1991
outcomeMeasure: Kd (nM)
Note: unit nM is implicit; provide only the numeric part.

Memo: VMAFHLSTR , reported Kd: 9.39

----------
# testTarget: HLA-A*02:12
# protocolDescription: IEDB peptide-MHC binding, purified MHC/direct/fluorescence; filed as Kd, often an IC50 or EC50 that approximates it; bounds were set here for any values at or beyond the usual limits of such assays
# settings: source organism: Influenza A virus (A/ruddy turnstone/Delaware/67/1998(H12N4))
pKd: −log10 of the molar value.
outcomeMeasure: pKd

Memo: IVFMWAIHH , reported pKd: ≤ 4.70

----------
# testTarget: HLA-B*18:01
# protocolDescription: IEDB peptide-MHC binding, purified MHC/competitive/fluorescence; filed as Kd, often an IC50 or EC50 that approximates it; bounds were set here for any values at or beyond the usual limits of such assays
# settings: source organism: Giardia lamblia ATCC 50803
outcomeMeasure: Kd

Memo: LLDDGWAGE , reported Kd: ≥ 20 µM

----------
# testTarget: HLA-B*44:03
# protocolDescription: IEDB peptide-MHC binding, purified MHC/competitive/radioactivity; filed as Kd, often an IC50 or EC50 that approximates it; bounds were set here for any values at or beyond the usual limits of such assays
# settings: source organism: Dengue virus 4 Philippines/H241/1956
Provide the reported pKd of each item.
pKd field: float, defined as -log10 of concentration (mol/L).

Memo: NEGIMAVGL , reported pKd: 5.81

Memo: QEEHKETWHY , reported pKd: 6.37

Memo: AIAVASGLLW , reported pKd: 6.04

Memo: GEMCEDTVTY , reported pKd: 6.98

----------
# testTarget: HLA-B*08:03
# protocolDescription: IEDB peptide-MHC binding, purified MHC/direct/fluorescence; filed as Kd, often an IC50 or EC50 that approximates it; bounds were set here for any values at or beyond the usual limits of such assays
# settings: source organism: Listeria monocytogenes serotype 4b str. H7858
outcomeMeasure: Kd

Memo: QMKRRILSF , reported Kd: 95 nM

----------
# testTarget: HLA-B*57:01
# protocolDescription: IEDB peptide-MHC binding, purified MHC/direct/fluorescence; filed as Kd, often an IC50 or EC50 that approximates it; bounds were set here for any values at or beyond the usual limits of such assays
# settings: source organism: Cryptosporidium hominis
outcomeMeasure: pKd
pKd field: float, defined as -log10 of concentration (mol/L).

Memo: MSFSDTFEM , reported pKd: 7.26

----------
# testTarget: HLA-B*46:01
# protocolDescription: IEDB peptide-MHC binding, purified MHC/direct/fluorescence; filed as Kd, often an IC50 or EC50 that approximates it; bounds were set here for any values at or beyond the usual limits of such assays
# settings: source organism: Orthohantavirus sinnombreense
pKd: −log10 of the molar value.
outcomeMeasure: pKd

Memo: FRYKSRCYV , reported pKd: ≤ 4.70
